- Organism: Bos taurus
- experiment description: Antiangiogenic activity against BLMVEC grown on RGF-BME assessed as inhibition of tube-like network formation at 100 uM after 16 hrs by calcein staining-based microscopy
- Assay type: functional
Active and inactive are the calls of the source. The rule behind the calls is not given here.
attribute measured: inhibition

Would you please look over these solved cases?
O=c1c(OS(=O)(=O)O)c(-c2ccccc2OS(=O)(=O)O)oc2ccccc12 | Active
O=c1cc(-c2ccc(OS(=O)(=O)O)cc2)oc2cc(OS(=O)(=O)O)cc(OS(=O)(=O)O)c12 | Active
O=C1c2c(cc(OS(=O)(=O)O)cc2OS(=O)(=O)O)O[C@@H](c2ccc(OS(=O)(=O)O)c(OS(=O)(=O)O)c2)[C@@H]1OS(=O)(=O)O | inactive
O=C1c2c(cc(OS(=O)(=O)O)cc2OS(=O)(=O)O)O[C@@H](c2ccc(OS(=O)(=O)O)c(OS(=O)(=O)O)c2)[C@H]1OS(=O)(=O)O | inactive
O=c1c(OS(=O)(=O)O)c(-c2ccc(OS(=O)(=O)O)c(OS(=O)(=O)O)c2)oc2cc(OS(=O)(=O)O)cc(OS(=O)(=O)O)c12 | inactive
O=c1c(OS(=O)(=O)O)c(-c2ccc(OS(=O)(=O)O)c(OS(=O)(=O)O)c2)oc2cc(OS(=O)(=O)O)ccc12 | inactive
O=C(CCc1ccc(OS(=O)(=O)O)cc1)c1c(OS(=O)(=O)O)cc(OS(=O)(=O)O)cc1OS(=O)(=O)O | Active
CCOC(=O)[C@@H]1Cc2cc(OS(=O)(=O)O)c(OS(=O)(=O)O)cc2CN1C(=O)c1ccc(OS(=O)(=O)O)c(OS(=O)(=O)O)c1 | inactive

Query: GET /values?readout=inhibition&item= O=C(c1cc(OS(=O)(=O)O)c(OS(=O)(=O)O)c(OS(=O)(=O)O)c1)N1CCc2cc(OS(=O)(=O)O)c(OS(=O)(=O)O)cc2C1
Response: inactive

Query: GET /values?readout=inhibition&item= O=c1cc(-c2ccc(OS(=O)(=O)O)c(OS(=O)(=O)O)c2)oc2cc(OS(=O)(=O)O)cc(OS(=O)(=O)O)c12
Response: Active

Query: GET /values?readout=inhibition&item= O=C(c1ccc(OS(=O)(=O)O)c(OS(=O)(=O)O)c1)N1CCc2cc(OS(=O)(=O)O)c(OS(=O)(=O)O)cc2C1
Response: inactive

----------
- Species: Bos taurus
- experiment description: Antiangiogenic activity against BLMVEC grown on RGF-BME assessed as inhibition of branching at 100 uM after 16 hrs by calcein staining-based microscopy
- Assay type: functional
Calls of active or inactive are those of the source. The calls are words filed in the database; no cut-off is given here.
attribute measured: inhibition

O=c1c(OS(=O)(=O)O)c(-c2ccc(OS(=O)(=O)O)cc2OS(=O)(=O)O)oc2ccc(OS(=O)(=O)O)cc12 | inactive
O=C(c1cc(OS(=O)(=O)O)c(OS(=O)(=O)O)c(OS(=O)(=O)O)c1)N1CCc2cc(OS(=O)(=O)O)c(OS(=O)(=O)O)cc2C1 | inactive
O=C(c1ccc(OS(=O)(=O)O)c(OS(=O)(=O)O)c1)N1CCc2cc(OS(=O)(=O)O)c(OS(=O)(=O)O)cc2C1 | inactive

----------
- System: Endothelial cell
- experiment description: Antiangiogenic activity against BLMVEC grown on RGF-BME assessed as dispersed endothelial cells at 100 uM after 16 hrs by calcein staining-based microscopy
- Assay type: functional
- settings: Bos taurus
Activity calls are given as the source filed them. The calls are words filed in the database; no cut-off is given here.
Respond only with the outcome that fits, drawn from T for active, F for inactive

O=C(c1cc(OS(=O)(=O)O)c(OS(=O)(=O)O)c(OS(=O)(=O)O)c1)N1CCc2cc(OS(=O)(=O)O)c(OS(=O)(=O)O)cc2C1 | F
O=C(c1ccc(OS(=O)(=O)O)c(OS(=O)(=O)O)c1)N1CCc2cc(OS(=O)(=O)O)c(OS(=O)(=O)O)cc2C1 | F
O=C(CCc1ccc(OS(=O)(=O)O)cc1)c1c(OS(=O)(=O)O)cc(OS(=O)(=O)O)cc1OS(=O)(=O)O | T
O=c1cc(-c2ccc(OS(=O)(=O)O)cc2)oc2cc(OS(=O)(=O)O)cc(OS(=O)(=O)O)c12 | T

Query: Outcome? O=c1c(OS(=O)(=O)O)c(-c2ccc(OS(=O)(=O)O)cc2OS(=O)(=O)O)oc2ccc(OS(=O)(=O)O)cc12
Response: F

Query: Outcome? C[C@]12CC[C@@H]3c4ccc(OS(=O)(=O)O)cc4CC[C@H]3[C@@H]1CC[C@@H]2O
Response: T

Query: Outcome? O=c1cc(-c2ccc(OS(=O)(=O)O)c(OS(=O)(=O)O)c2)oc2cc(OS(=O)(=O)O)cc(OS(=O)(=O)O)c12
Response: T

----------
- Species: Bos taurus
- experiment description: Antiangiogenic activity against BLMVEC grown on RGF-BME assessed as inhibition of tube-like network formation at 100 uM after 16 hrs by calcein staining-based microscopy
- Type: functional
The source made the active and inactive calls. The rule behind the calls is not given here.
Respond only with the outcome that fits, drawn from active, inactive

O=c1c(OS(=O)(=O)O)c(-c2ccc(OS(=O)(=O)O)cc2OS(=O)(=O)O)oc2ccc(OS(=O)(=O)O)cc12 | inactive
C[C@]12CC[C@@H]3c4ccc(OS(=O)(=O)O)cc4CC[C@H]3[C@@H]1CC[C@@H]2O | active

Moving on to another molecule below.
Query: Outcome? CCOC(=O)[C@@H]1Cc2cc(OS(=O)(=O)O)c(OS(=O)(=O)O)cc2CN1C(=O)c1cc(OS(=O)(=O)O)c(OS(=O)(=O)O)c(OS(=O)(=O)O)c1
Response: inactive
